This section presents compounds with their documented DC50 values.
- test.system: ALK protein in SR (NPM-ALK) cells (Homo sapiens, UniProt Q9UM73)
- Construct: NPM (nucleophosmin, NPM1, P06748) fusion partner; host or cells: SR (ALCL) cells; the other entry of the earlier key: NPM1 (P06748, Nucleophosmin)
- Sequence (Q9UM73 with tags, fused parts or gaps): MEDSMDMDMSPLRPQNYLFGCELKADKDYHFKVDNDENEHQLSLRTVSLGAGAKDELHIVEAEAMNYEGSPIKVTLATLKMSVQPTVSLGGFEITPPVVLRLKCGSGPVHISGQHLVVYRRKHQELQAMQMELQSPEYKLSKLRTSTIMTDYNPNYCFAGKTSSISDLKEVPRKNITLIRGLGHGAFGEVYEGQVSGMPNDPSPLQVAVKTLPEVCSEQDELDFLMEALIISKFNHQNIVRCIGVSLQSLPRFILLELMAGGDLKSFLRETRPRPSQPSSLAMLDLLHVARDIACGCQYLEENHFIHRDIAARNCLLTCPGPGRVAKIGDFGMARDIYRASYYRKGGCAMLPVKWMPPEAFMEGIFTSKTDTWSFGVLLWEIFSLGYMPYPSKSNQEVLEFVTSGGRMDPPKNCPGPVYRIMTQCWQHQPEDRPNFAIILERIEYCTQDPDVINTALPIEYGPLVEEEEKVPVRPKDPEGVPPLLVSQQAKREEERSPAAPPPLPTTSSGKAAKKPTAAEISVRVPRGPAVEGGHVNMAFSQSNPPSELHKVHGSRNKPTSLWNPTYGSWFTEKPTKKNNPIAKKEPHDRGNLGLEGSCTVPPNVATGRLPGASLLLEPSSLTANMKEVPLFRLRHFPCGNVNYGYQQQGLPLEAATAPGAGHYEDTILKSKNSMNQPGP
- protocol.details: Western blot of ALK protein level (degradation, DC50), ALK phosphorylation and downstream signaling in SR cells
- Type: cell-based
- assay.conditions: ALK protein degradation in SR cells
measurement.type: DC50

{"columns": ["compound", "test.system", "result"],
 "data": [
  ["COc1cc(N2CCC(N3CCN(C(=O)CCC(=O)NCCNc4cccc5c4C(=O)N(C4CCC(=O)NC4=O)C5=O)CC3)CC2)ccc1Nc1ncc(Cl)c(Nc2ccccc2P(C)(C)=O)n1 (centres unmarked) [SIAIS164152]", "ALK protein in SR (NPM-ALK) cells (Homo sapiens, UniProt Q9UM73)", "0.5 to 10 nM"],
  ["COc1cc(N2CCC(N3CCN(C(=O)CCOCCOCCOCCOCCNc4cccc5c4C(=O)N(C4CCC(=O)NC4=O)C5=O)CC3)CC2)ccc1Nc1ncc(Cl)c(Nc2ccccc2P(C)(C)=O)n1 (centres unmarked) [SIAIS164016]", "ALK protein in SR (NPM-ALK) cells (Homo sapiens, UniProt Q9UM73)", "1 to 10 nM"],
  ["COc1cc(N2CCC(N3CCN(C(=O)CCOCCOCCOCCNc4cccc5c4C(=O)N(C4CCC(=O)NC4=O)C5=O)CC3)CC2)ccc1Nc1ncc(Cl)c(Nc2ccccc2P(C)(C)=O)n1 (centres unmarked) [SIAIS164009]", "ALK protein in SR (NPM-ALK) cells (Homo sapiens, UniProt Q9UM73)", "1 to 10 nM"],
  ["COc1cc(N2CCC(NC(=O)CCCCC(=O)N[C@H](C(=O)N3C[C@H](O)C[C@H]3C(=O)NCc3ccc(-c4scnc4C)cc3)C(C)(C)C)CC2)ccc1Nc1ncc(Cl)c(Nc2ccccc2P(C)(C)=O)n1 [SIAIS164145]", "ALK protein in SR (NPM-ALK) cells (Homo sapiens, UniProt Q9UM73)", "1 to 10 nM"],
  ["CCc1cc2c(cc1N1CCN(C(=O)CNc3cccc4c3C(=O)N(C3CCC(=O)NC3=O)C4=O)CC1)C(C)(C)c1[nH]c3cc(C#N)ccc3c1C2=O (centres unmarked) [SIAIS164028]", "ALK protein in SR (NPM-ALK) cells (Homo sapiens, UniProt Q9UM73)", "1 to 50 nM"]
]}

###

This section presents compounds with their documented DC50 values.
- test.system: ALK protein in H3122 (EML4-ALK) cells (Homo sapiens, UniProt Q9UM73)
- Construct: EML4 (Echinoderm microtubule-associated protein-like 4, Q9HC35) fusion partner, variant 1; host or cells: NCI-H3122 lung adenocarcinoma cells; the other entry of the earlier key: EML4 (Q9HC35, Echinoderm microtubule-associated protein-like 4)
- Sequence (Q9UM73 with tags, fused parts or gaps): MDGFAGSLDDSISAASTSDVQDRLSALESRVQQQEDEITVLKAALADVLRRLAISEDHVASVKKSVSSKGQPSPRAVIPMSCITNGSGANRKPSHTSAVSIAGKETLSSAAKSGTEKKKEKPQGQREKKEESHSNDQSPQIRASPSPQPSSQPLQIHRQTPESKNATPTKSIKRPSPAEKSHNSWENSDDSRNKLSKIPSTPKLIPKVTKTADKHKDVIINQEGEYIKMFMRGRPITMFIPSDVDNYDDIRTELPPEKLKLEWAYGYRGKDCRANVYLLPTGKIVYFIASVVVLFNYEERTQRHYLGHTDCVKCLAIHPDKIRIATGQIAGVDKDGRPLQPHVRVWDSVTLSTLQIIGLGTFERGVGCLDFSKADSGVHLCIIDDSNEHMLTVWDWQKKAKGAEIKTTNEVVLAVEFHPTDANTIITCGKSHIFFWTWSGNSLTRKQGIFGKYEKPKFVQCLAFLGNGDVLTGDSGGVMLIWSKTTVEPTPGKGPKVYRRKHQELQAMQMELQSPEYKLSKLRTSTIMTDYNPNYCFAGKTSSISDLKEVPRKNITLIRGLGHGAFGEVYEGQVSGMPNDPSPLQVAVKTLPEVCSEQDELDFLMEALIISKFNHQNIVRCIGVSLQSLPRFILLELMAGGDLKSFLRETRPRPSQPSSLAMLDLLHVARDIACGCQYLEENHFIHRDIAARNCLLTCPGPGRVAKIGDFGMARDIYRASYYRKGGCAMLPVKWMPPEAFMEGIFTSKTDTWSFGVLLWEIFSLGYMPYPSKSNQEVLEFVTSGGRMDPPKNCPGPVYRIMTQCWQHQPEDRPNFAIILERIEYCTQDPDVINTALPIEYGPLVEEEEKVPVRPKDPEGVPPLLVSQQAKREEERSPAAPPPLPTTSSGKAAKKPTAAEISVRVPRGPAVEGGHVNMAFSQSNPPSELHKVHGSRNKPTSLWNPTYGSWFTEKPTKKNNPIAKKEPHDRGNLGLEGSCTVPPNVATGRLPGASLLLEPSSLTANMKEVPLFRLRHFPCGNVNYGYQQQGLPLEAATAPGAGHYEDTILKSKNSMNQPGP
- protocol.details: Western blot of ALK protein level (degradation, DC50), ALK phosphorylation and downstream signaling in H3122 cells
- Type: cell-based
- assay.conditions: ALK protein degradation in H3122 cells

{"columns": ["compound", "DC50"],
 "data": [
  ["COc1cc(N2CCC(NC(=O)CCOCCOCCOCCOCCOCCC(=O)N[C@H](C(=O)N3C[C@H](O)C[C@H]3C(=O)NCc3ccc(-c4scnc4C)cc3)C(C)(C)C)CC2)ccc1Nc1ncc(Cl)c(Nc2ccccc2P(C)(C)=O)n1 [SIAIS151127]", "20 to 100 nM"],
  ["C[C@@H](Oc1cc(-c2cnn(C3CCN(C(=O)CNc4cccc5c4C(=O)N(C4CCC(=O)NC4=O)C5=O)CC3)c2)cnc1N)c1c(Cl)ccc(F)c1Cl (some centres unmarked) [SIAIS151083]", "10 to 50 nM"],
  ["COc1cc(N2CCC(N3CCN(C(=O)CCCCCCCC(=O)N[C@H](C(=O)N4C[C@H](O)C[C@H]4C(=O)NCc4ccc(-c5scnc5C)cc4)C(C)(C)C)CC3)CC2)ccc1Nc1ncc(Cl)c(Nc2ccccc2P(C)(C)=O)n1 [SIAIS164125]", "10 to 50 nM"],
  ["COc1cc(N2CCC(N3CCN(C(=O)CCCCCCC(=O)N[C@H](C(=O)N4C[C@H](O)C[C@H]4C(=O)NCc4ccc(-c5scnc5C)cc4)C(C)(C)C)CC3)CC2)ccc1Nc1ncc(Cl)c(Nc2ccccc2P(C)(C)=O)n1 [SIAIS164124]", "100 to 500 nM"],
  ["COc1cc(N2CCC(NC(=O)CCOCCOCCNc3cccc4c3C(=O)N(C3CCC(=O)NC3=O)C4=O)CC2)ccc1Nc1ncc(Cl)c(Nc2ccccc2P(C)(C)=O)n1 (centres unmarked) [SIAIS151114]", "100 to 500 nM"]
]}

###

- protocol.details: Pharmacokinetics (PK) study in SD rat (IV, IP, PO; LC-MS/MS)
- Assay type: in vivo
- assay.conditions: Sprague-Dawley, serum, PO, 10 mg/kg

{"columns": ["molecule", "unit", "bioavailability"],
 "data": [
  ["COc1cc(N2CCC(N3CCN(C(=O)CCCCCCNc4cccc5c4C(=O)N(C4CCC(=O)NC4=O)C5=O)CC3)CC2)ccc1Nc1ncc(Cl)c(Nc2ccccc2P(C)(C)=O)n1 (stereo not shown)", "%", 34.4],
  ["COc1cc(N2CCC(N3CCN(C(=O)CCOCCOCCNc4cccc5c4C(=O)N(C4CCC(=O)NC4=O)C5=O)CC3)CC2)ccc1Nc1ncc(Cl)c(Nc2ccccc2P(C)(C)=O)n1 (stereo not shown)", "%", 14.9],
  ["COc1cc(N2CCC(N3CCN(C(=O)CNc4cccc5c4C(=O)N(C4CCC(=O)NC4=O)C5=O)CC3)CC2)ccc1Nc1ncc(Cl)c(Nc2ccccc2P(C)(C)=O)n1 (stereo not shown)", "%", 18.4],
  ["COc1cc(N2CCC(NC(=O)CCCNc3cccc4c3C(=O)N(C3CCC(=O)NC3=O)C4=O)CC2)ccc1Nc1ncc(Cl)c(Nc2ccccc2P(C)(C)=O)n1 (stereo not shown)", "%", 36]
]}

###

- System: PC9Brc1 (EGFR, exon 19 del+T790M) cells
- protocol.details: Growth inhibition IC50 in EGFR mutant lung cancer PC9Brc1 cells
- Assay type: cell-based
- assay.conditions: CTB, n ≥ 3, read-out: Half Inhibitory Concentration (IC50) Mean
pIC50: −log10 of the molar value.

{"columns": ["compound", "test.system", "pIC50"],
 "data": [
  ["COc1cc(N2CCC(N3CCN(C(=O)CCCCCNc4cccc5c4C(=O)N(C4CCC(=O)NC4=O)C5=O)CC3)CC2)ccc1Nc1ncc(Cl)c(Nc2ccccc2P(C)(C)=O)n1 (centres unmarked) [SIAIS164022]", "PC9Brc1 (EGFR, exon 19 del+T790M) cells", 6.16],
  ["COc1cc(N2CCC(NC(=O)CCCCCCCCC(=O)N[C@H](C(=O)N3C[C@H](O)C[C@H]3C(=O)NCc3ccc(-c4scnc4C)cc3)C(C)(C)C)CC2)ccc1Nc1ncc(Cl)c(Nc2ccccc2P(C)(C)=O)n1 [SIAIS164149]", "PC9Brc1 (EGFR, exon 19 del+T790M) cells", 6.01],
  ["COc1cc(N2CCC(NC(=O)CCCCCCCC(=O)N[C@H](C(=O)N3C[C@H](O)C[C@H]3C(=O)NCc3ccc(-c4scnc4C)cc3)C(C)(C)C)CC2)ccc1Nc1ncc(Cl)c(Nc2ccccc2P(C)(C)=O)n1 [SIAIS164148]", "PC9Brc1 (EGFR, exon 19 del+T790M) cells", 5.87],
  ["COc1cc(N2CCC(N3CCN(C(=O)CCOCCOCCNc4cccc5c4C(=O)N(C4CCC(=O)NC4=O)C5=O)CC3)CC2)ccc1Nc1ncc(Cl)c(Nc2ccccc2P(C)(C)=O)n1 (centres unmarked) [SIAIS164008]", "PC9Brc1 (EGFR, exon 19 del+T790M) cells", 5.74],
  ["COc1cc(N2CCC(N3CCN(C(=O)CCCCNc4cccc5c4C(=O)N(C4CCC(=O)NC4=O)C5=O)CC3)CC2)ccc1Nc1ncc(Cl)c(Nc2ccccc2P(C)(C)=O)n1 (centres unmarked) [SIAIS164021]", "PC9Brc1 (EGFR, exon 19 del+T790M) cells", 5.61],
  ["COc1cc(N2CCC(NC(=O)CCCCCCC(=O)N[C@H](C(=O)N3C[C@H](O)C[C@H]3C(=O)NCc3ccc(-c4scnc4C)cc3)C(C)(C)C)CC2)ccc1Nc1ncc(Cl)c(Nc2ccccc2P(C)(C)=O)n1 [SIAIS164147]", "PC9Brc1 (EGFR, exon 19 del+T790M) cells", 5.89],
  ["COc1cc(N2CCC(N3CCN(C(=O)CCOCCNc4cccc5c4C(=O)N(C4CCC(=O)NC4=O)C5=O)CC3)CC2)ccc1Nc1ncc(Cl)c(Nc2ccccc2P(C)(C)=O)n1 (centres unmarked) [SIAIS164007]", "PC9Brc1 (EGFR, exon 19 del+T790M) cells", 5.79],
  ["COc1cc(N2CCC(N3CCN(C(=O)CNc4cccc5c4C(=O)N(C4CCC(=O)NC4=O)C5=O)CC3)CC2)ccc1Nc1ncc(Cl)c(Nc2ccccc2P(C)(C)=O)n1 (centres unmarked) [SIAIS164018]", "PC9Brc1 (EGFR, exon 19 del+T790M) cells", 6.05],
  ["COc1cc(N2CCC(N3CCN(C)CC3)CC2)ccc1Nc1ncc(Cl)c(Nc2ccccc2P(C)(C)=O)n1 [Brigatinib, reference compound]", "PC9Brc1 (EGFR, exon 19 del+T790M) cells", 6.61],
  ["COc1cc(N2CCC(NC(=O)CCCCCCCCCC(=O)N[C@H](C(=O)N3C[C@H](O)C[C@H]3C(=O)NCc3ccc(-c4scnc4C)cc3)C(C)(C)C)CC2)ccc1Nc1ncc(Cl)c(Nc2ccccc2P(C)(C)=O)n1 [SIAIS1210117]", "PC9Brc1 (EGFR, exon 19 del+T790M) cells", 6.34],
  ["COc1cc(N2CCC(N3CCN(C(=O)CCCCCCNc4cccc5c4C(=O)N(C4CCC(=O)NC4=O)C5=O)CC3)CC2)ccc1Nc1ncc(Cl)c(Nc2ccccc2P(C)(C)=O)n1 (centres unmarked) [SIAIS164023]", "PC9Brc1 (EGFR, exon 19 del+T790M) cells", 6.06]
]}
